Assay: Oral bioavailability in Wistar Han rat using spray-dried dispersion at 1 mg/kg by LC-MS/MS analysis
Format: ADME, organism-based
Conditions: in vivo
Parameter: bioavailability (%)

1. CC(C)(O)c1cc(C(F)(F)F)ncc1-c1ccc(C2(C(=O)Nc3ccc(F)cc3)COC2)cc1; 62

* * *

Assay: Solubility of compound at pH 7
Format: physicochemical
Conditions: buffer
Below: a set of entries, each annotated with reported solubility.
Parameter: solubility

1. Cc1cc(C(F)(F)F)ncc1-c1ccc(C2(C(=O)Nc3ccc(F)cc3)COC2)cc1; < 3 µM
2. O=C(Nc1ccc(F)cc1)C1(c2ccc(-c3cnc(C(F)(F)F)cc3CO)cc2)CCC1; < 2 µM
3. O=C(Nc1ccc(F)cc1)C1(c2ccc(-c3ccc(C4CC4)nc3)cc2)COC1; < 3 µM
